Target: Cytochrome P450 2D6 (Homo sapiens)
Sequence (P10635 whole entry): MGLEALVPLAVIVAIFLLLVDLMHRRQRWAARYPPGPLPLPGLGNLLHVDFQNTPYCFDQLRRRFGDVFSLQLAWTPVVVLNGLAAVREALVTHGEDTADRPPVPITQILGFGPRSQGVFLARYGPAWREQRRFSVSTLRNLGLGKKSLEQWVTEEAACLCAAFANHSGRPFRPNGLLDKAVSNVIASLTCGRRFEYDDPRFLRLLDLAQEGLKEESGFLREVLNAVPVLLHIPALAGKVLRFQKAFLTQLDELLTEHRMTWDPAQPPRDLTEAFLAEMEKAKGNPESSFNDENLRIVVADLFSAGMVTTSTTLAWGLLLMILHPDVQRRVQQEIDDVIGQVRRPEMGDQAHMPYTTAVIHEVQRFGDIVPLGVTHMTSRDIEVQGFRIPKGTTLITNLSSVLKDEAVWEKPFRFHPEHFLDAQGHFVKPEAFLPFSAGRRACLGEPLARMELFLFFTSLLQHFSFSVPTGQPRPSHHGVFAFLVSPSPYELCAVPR
resultType: IC50

Observed IC50 on Cytochrome P450 2D6 (Homo sapiens) for Cc1csc(N(C(=O)CSc2ccc(-c3ccccc3)nn2)C2CC2)n1 , please. > 30 µM
